Where do the numbers come from? From PubChem BioAssay (NCATS).

- System: 3D7
- protocol: qHTS profiling for inhibitors of Plasmodium falciparum proliferation (AID 504749);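 further: 0% = DMSO vehicle and full inhibition = artemisinin control; nearly all actives have a fitted effect of over 60% in size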
- condition_summary: P. falciparum in erythrocytes, SYBR Green DNA, 72 h; series mostly up to 28.7 µM
Records with an inconclusive call do not appear. Active and inactive are the calls of the source. The call rests on the fitted dose curve; in most records, active means well fitted inhibition curve with a large enough effect; inconclusive means small, poorly fitted or top-dose-only effect; inactive means flat fitted curve, though single readings scatter.
reported_metric: outcome

Look over these answered cases.
> print(dat)
                                   compound  observed.result
1    NC(N)=Nc1nc(CSCC/C(N)=N/S(N)(=O)=O)cs1         inactive
2  Cc1cccc(C)c1OCC(C)N (configuration not stated)         inactive
3         O=C1NC(=O)C(c2ccccc2)(c2ccccc2)N1         inactive
4                     O=C(O)Cc1cccc2ccccc12         inactive
5  O=C1Nc2ccc(Cl)cc2C(C#CC2CC2)(C(F)(F)F)O1 (configuration not stated)         inactive
6                  Cc1cnc(C(=O)O)c[n+]1[O-]         inactive

Shift focus to the following entry.
Recorded result, `NCCS` , outcome: inactive

---

- protocol: qHTS Screen of the MIPE 4.0 Collection Against Ewings Sarcoma (TC32) (AID 1259256); further: nearly all actives have a fitted effect of over 45% in size
- condition_summary: TC32 Ewing sarcoma viability, CellTiter-Glo, 48 h; series mostly up to 45.8 µM
- Protocol: There is a large unmet medical need for treatments for Ewing sarcoma, a pediatric sarcoma. […] Using the NCATS developed oncology compound library called the Mechanism of Interrogation Plate (MIPE), four Ewing sarcoma cell lines were evaluated (TC32, TC71, RDES, EW8). Compounds, in a 12-point titration series, were incubated with cells for 48 hours and the read out was cell viability (CellTiter-Glo from Promega). […]
Records with an inconclusive call do not appear. The source made the active and inactive calls. Calls follow the shape of the dose curve; as a rule, active = well fitted inhibition curve with a large enough effect; inconclusive = small, poorly fitted or top-dose-only effect; inactive = no such curve, though single readings can be large or run the other way.
A correct response names exactly one class from active, inactive

Status in this test for `Cc1ccn(-c2ccc(-c3ncco3)cc2)c(=O)c1-c1ccc2nc(N)ncc2c1` ?
active

For `CC(C)OC(=O)CCCC=CC[C@@H]1[C@H](C=C[C@@H](O)COc2cccc(C(F)(F)F)c2)[C@H](O)C[C@@H]1O` , which call appears in the assay record?
inactive

Record request — test call for C[C@]12CCC3c4ccc(O)cc4CCC3C1CCC2=O (stereo not given in full)
active

Assay result, entry `COc1ccc2cccc(CCNC(C)=O)c2c1` — outcome?
inactive

Tell me the assay call for `CCn1cc(C(=O)O)c(=O)c2ccc(C)nc21` please.
inactive

---

- protocol: High-throughput drug toxicity screening in the BPDCN cell line Cal-1 (AID 1224825);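 further: cells exposed to compounds for 48 h; 100% = DMSO and 0% = bortezomib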
- condition_summary: Cal-1 BPDCN cell viability, qHTS; at 45.8 µM (top of the series) unless noted
reported_metric: viability (% of control) (%)
Output spec: scalar in %, unitless text.

Input `CC(C)=CC[C@@H](O)C1=CC(=O)c2c(O)ccc(O)c2C1=O` . Output viability (% of control): 13.2

In plain terms, `COc1ccc(-c2cc(=O)c3c(O)cc(O)cc3o2)cc1O` has a documented viability (% of control) of 16.3

Field viability (% of control) (entry `CC1(C)CCC[C@@]2(C)[C@@H]1CC[C@@]1(C)OC(=O)C[C@H]21` ) reads 102

For this molecule ( `CO[C@H]1C[C@@H]2CC[C@@H](C)[C@@](O)(O2)C(=O)C(=O)N2CCCC[C@@H]2C(=O)O[C@H]([C@H](C)C[C@@H]2CC[C@H](OCCO)[C@H](OC)C2)CC(=O)[C@H](C)C=C(C)[C@@H](O)[C@@H](OC)C(=O)[C@H](C)C[C@H](C)C=CC=CC=C1C` ), measured viability (% of control) is 12.7

Form: molecule = NC1CCC(Nc2nc(Nc3ccc(C(=O)N4CCCCC4)cc3)c3ncn(-c4cccc(F)c4)c3n2)CC1 (stereo not drawn) ; viability (% of control) = 101

Recorded result, `CCc1ccc(OCc2ccccc2C(=O)Nc2ccc3nc(C)cc(N)c3c2)cc1` , viability (% of control): 4.73

Consider COc1ccc2cc(-c3nc(-c4ccc(S(C)=O)cc4)[nH]c3-c3ccncc3)ccc2c1 (stereo not drawn) . Its measured viability (% of control) is 65.1
